Biological target: human EGFR (His672-Ala1210) (Homo sapiens)
Construct: human EGFR (His672-Ala1210); GST (N); purchased Cell Signaling Technology; host or cells: baculovirus expression system
Sequence (P00533 672-1210): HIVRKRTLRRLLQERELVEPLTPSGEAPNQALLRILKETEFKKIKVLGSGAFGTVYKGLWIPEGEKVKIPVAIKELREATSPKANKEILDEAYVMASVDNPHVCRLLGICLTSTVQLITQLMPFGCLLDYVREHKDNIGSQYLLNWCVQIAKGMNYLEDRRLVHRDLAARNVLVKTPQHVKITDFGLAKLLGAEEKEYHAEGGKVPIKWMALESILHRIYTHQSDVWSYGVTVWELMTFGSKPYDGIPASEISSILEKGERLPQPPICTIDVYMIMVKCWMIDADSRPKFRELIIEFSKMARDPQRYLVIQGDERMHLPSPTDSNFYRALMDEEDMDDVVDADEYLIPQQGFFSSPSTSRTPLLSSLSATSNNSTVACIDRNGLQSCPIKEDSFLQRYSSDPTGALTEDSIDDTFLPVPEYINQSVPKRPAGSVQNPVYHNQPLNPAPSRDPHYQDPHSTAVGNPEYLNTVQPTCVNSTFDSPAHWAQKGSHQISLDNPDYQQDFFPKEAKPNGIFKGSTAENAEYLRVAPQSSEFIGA
Assay: EGFR kinase assay (HTScan kit, DELFIA)
Format: biochemical
Details: compound at 0.1 μM; read-out: EGFR 0.1 μM, % of inhibition relative to control
Entries and their measured inhibition at 0.1 µM follow.
assay-endpoint: inhibition at 0.1 µM (%)

* O=C1Nc2ccc(F)cc2/C1=C/c1cc(Cl)c2cccccc1-2 [Compound 46] | 11
* O=C1Nc2ccc(F)cc2/C1=C/c1cc(Br)c2cccccc1-2 [Compound 45] | 2.5
* O=C1Nc2ccccc2/C1=C/c1cc2cccccc-2c1 [Compound 33] | 15.2
* Cc1cc(C=C2C(=O)Nc3ccccc32)c2cccccc1-2 [Compound 37] | 2.9
* Cc1cc(/C=C2\C(=O)Nc3ccc(F)cc32)c2cccccc1-2 [Compound 39] | 6.1
* O=C1Nc2c(Cl)cccc2/C1=C/c1ccc2cccccc1-2 [Compound 42] | 8.8
* O=C1Nc2ccc(-c3ccccc3)cc2/C1=C/c1ccc2cccccc1-2 [Compound 34] | 6.1
* Cc1cc(/C=C2/C(=O)Nc3ccccc32)c2cccccc1-2 [Compound 36] | 9.6
* COc1ccc2c(c1)NC(=O)/C2=C\c1ccc2cccccc1-2 [Compound 31] | 0.2
* O=C1Nc2ccccc2/C1=C\c1cc2cccccc-2c1 [Compound 32] | 7.7
* COc1ccc2c(c1)/C(=C\c1ccc3cccccc1-3)C(=O)N2 [Compound 43] | 6.2
* Cc1ccc2c(c1)/C(=C\c1ccc3cccccc1-3)C(=O)N2 [Compound 47] | 8.3
* Cc1cc(/C=C2/C(=O)Nc3ccc(F)cc32)c2cccccc1-2 [Compound 38] | 0.8
* CN(C)c1nc2cccccc-2c1/C=C1/C(=O)Nc2ccccc21 [Compound 35] | 9.5
* Cc1ccc2c(c1)/C(=C/c1ccc3cccccc1-3)C(=O)N2 [Compound 48] | 7.8
* COc1ccc2c(c1)/C(=C/c1ccc3cccccc1-3)C(=O)N2 [Compound 44] | 4.7
* O=C1Nc2ccc(F)cc2/C1=C/c1cc2cccccc-2c1 [Compound 41] | 6.4
* O=C1Nc2ccc(F)cc2/C1=C\c1cc2cccccc-2c1 [Compound 40] | 10
